Attribute: pIC50
molecular target: H-2 D^b (mouse; human), P61769
# reply with the number alone; pIC50 is -log10 of concentration in mol/L

Answered cases to consult:
Binder: GMLQGRGPL (modifications not checked) [C36-44]
pIC50: 6.09
--
Binder: VAVSFVTLI (modifications not checked) [NS2A36-44]
pIC50: 6.00

# lookup: pIC50 of VAFLRFLTI (modifications not checked) [C51-59]
5.86

Values compiled from patent US20110150914A1.
